TARGET OF ASSAY: human Syk protein (Homo sapiens (Human))
TEST: Syk kinase inhibition test
Format: biochemical
MEASUREMENT PARAMETERS: Table 95; read-out: SYK inhibitory activity IC50
IC50 by entry:
READOUT LABEL: IC50 (nM)

1) Cc1cc(Nc2nc(N[C@@H]3CCCC[C@@H]3N)nnc2C(N)=O)cc2nn(C)cc12 [Example 91, diformate]
0.26
2) CCn1cc2ccc(Nc3nc(N[C@@H]4CCCCC[C@@H]4N)nnc3C(N)=O)cc2n1
0.31
3) COc1ccc2sc(Nc3nc(N[C@@H]4CCCC[C@@H]4N)nnc3C(N)=O)c(C)c2c1
0.27
4) CCn1ncc2cc(Nc3nc(N[C@H](C)[C@@H](N)COC)nnc3C(N)=O)cc(C)c21
0.55
5) CCn1ncc2c(C)cc(Nc3nc(N[C@@H]4CCCC[C@@H]4N)nnc3C(N)=O)cc21
0.39
6) NC(=O)c1nnc(N[C@@H]2CCCC[C@@H]2N)nc1Nc1ccc2cn(C(F)F)nc2c1
0.53
7) Cc1cc2c(Nc3nc(N[C@@H]4CCCC[C@@H]4N)nnc3C(N)=O)cccc2n1C1CC1
0.71
8) Cc1cc(Nc2nc(N[C@@H]3CCOC[C@@H]3N)nnc2C(N)=O)c2ccn(C)c2c1
0.41

* * *

TARGET OF ASSAY: human Syk protein (Homo sapiens (Human), UniProt P43405)
TEST: Syk kinase inhibition test
Format: biochemical
MEASUREMENT PARAMETERS: Table 95; read-out: SYK inhibitory activity IC50
pIC50: −log10 of the molar value.
READOUT LABEL: pIC50

1) NC(=O)c1nnc(N[C@@H]2CCOC[C@@H]2N)nc1Nc1ccc2cnn(C(F)F)c2c1 [Example 170]
9.24
2) Cn1cc(-n2ccc3c(Nc4nc(N[C@@H]5CCCC[C@@H]5N)nnc4C(N)=O)cccc32)cn1 [Example 67]
9.59
3) NC(=O)c1nnc(N[C@@H]2CCCC[C@@H]2N)nc1Nc1cccc2sccc12 [Example 2]
9.34
4) NC(=O)c1nnc(N[C@@H]2CCOC[C@@H]2N)nc1Nc1cccc2c1ccn2C1CC1 [Example 160]
9.42

* * *

pIC50 by entry:
TARGET OF ASSAY: recombinant human KDR protein (Homo sapiens (Human))
Sequence (P35968 20-1356): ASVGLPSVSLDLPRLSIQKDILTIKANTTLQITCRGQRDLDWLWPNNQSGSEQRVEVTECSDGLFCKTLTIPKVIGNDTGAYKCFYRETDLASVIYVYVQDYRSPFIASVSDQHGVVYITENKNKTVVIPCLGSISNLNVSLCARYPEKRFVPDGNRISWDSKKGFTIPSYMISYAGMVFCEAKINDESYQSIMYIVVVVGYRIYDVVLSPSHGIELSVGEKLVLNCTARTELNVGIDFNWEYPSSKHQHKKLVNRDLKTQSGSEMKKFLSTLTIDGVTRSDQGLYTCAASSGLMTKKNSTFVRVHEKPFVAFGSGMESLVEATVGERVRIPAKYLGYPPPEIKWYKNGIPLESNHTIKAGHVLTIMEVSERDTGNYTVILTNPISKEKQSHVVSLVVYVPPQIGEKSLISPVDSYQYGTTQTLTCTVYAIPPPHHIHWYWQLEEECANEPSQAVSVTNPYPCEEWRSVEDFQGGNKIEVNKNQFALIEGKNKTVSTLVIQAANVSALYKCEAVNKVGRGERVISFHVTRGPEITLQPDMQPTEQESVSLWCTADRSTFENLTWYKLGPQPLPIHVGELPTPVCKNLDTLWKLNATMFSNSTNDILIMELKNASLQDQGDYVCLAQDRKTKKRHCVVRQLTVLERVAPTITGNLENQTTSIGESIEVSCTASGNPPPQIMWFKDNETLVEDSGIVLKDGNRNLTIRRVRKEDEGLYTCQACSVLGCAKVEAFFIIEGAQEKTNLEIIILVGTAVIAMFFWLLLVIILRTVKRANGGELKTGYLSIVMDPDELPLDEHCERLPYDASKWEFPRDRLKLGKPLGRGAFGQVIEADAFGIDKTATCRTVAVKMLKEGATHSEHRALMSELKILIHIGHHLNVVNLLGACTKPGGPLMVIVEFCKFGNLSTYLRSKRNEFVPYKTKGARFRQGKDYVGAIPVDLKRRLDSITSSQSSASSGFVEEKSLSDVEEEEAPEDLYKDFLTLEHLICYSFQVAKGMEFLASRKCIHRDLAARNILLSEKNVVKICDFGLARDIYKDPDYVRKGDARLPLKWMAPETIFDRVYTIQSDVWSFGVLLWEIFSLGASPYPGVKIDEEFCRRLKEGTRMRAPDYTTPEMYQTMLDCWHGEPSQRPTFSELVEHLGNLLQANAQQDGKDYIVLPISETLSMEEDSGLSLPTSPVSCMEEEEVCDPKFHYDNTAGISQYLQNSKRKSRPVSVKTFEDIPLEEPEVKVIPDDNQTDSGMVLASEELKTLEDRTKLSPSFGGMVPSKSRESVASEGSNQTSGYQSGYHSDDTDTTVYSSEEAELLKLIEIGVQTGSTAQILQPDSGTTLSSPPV
TEST: KDR kinase activity inhibitory effect
MEASUREMENT PARAMETERS: Table 97
Procedure: The purified recombinant human KDR protein used in the test is a house purified product. […] The mixture was incubated at 30° C. for 180 minutes to perform kinase reaction. […] Their respective amounts were measured, and the rate of phosphorylation reaction was then determined from the ratio between the amounts.
pIC50: −log10 of the molar value.
READOUT LABEL: pIC50

1) NC(=O)c1nnc(N[C@@H]2CCCC[C@@H]2N)nc1Nc1cc2ccccc2s1
< 5.70
2) NC(=O)c1nnc(N[C@@H]2CCOC[C@@H]2N)nc1Nc1cccc2c1ccn2C1CC1
5.85
3) NC(=O)c1nnc(N[C@@H]2CCCC[C@@H]2N)nc1Nc1ccc2cn(C(F)F)nc2c1
< 5.00

* * *

pIC50 by entry:
TARGET OF ASSAY: human Syk protein (Homo sapiens (Human), UniProt P43405)
TEST: Syk kinase inhibition test
Assay type: biochemical
MEASUREMENT PARAMETERS: Table 97; read-out: SYK inhibitory activity IC50
pIC50: −log10 of the molar value.
READOUT LABEL: pIC50

1) NC(=O)c1nnc(N[C@@H]2CCCC[C@@H]2N)nc1Nc1cc2ccccc2s1
9.55
2) NC(=O)c1nnc(N[C@@H]2CCOC[C@@H]2N)nc1Nc1cccc2c1ccn2C1CC1
9.42
3) NC(=O)c1nnc(N[C@@H]2CCCC[C@@H]2N)nc1Nc1ccc2cn(C(F)F)nc2c1
9.28

FYI, the data here is from patent US9145414B2.
